Tested on: Bacillus subtilis
method: Antimicrobial activity against Bacillus subtilis ATCC 6633 by tube dilution method
Type: functional
# maps each entry to its MIC

[
  {
    "substance.smiles": "CNCC1=CC[C@@H](N)[C@@H](O[C@H]2[C@H](O)[C@@H](O[C@H]3OC[C@](C)(O)[C@H](NC)[C@H]3O)[C@H](N)C[C@@H]2N)O1",
    "value.qualifier": "<",
    "MIC [µg/mL]": 0.01
  },
  {
    "substance.smiles": "CN[C@@H]1[C@@H](O)[C@@H](O[C@@H]2[C@@H](O)[C@H](O[C@H]3OC(CO)=CC[C@H]3N)[C@@H](N)C[C@H]2N)OC[C@]1(C)O",
    "value.qualifier": "=",
    "MIC [µg/mL]": 0.075
  },
  {
    "substance.smiles": "CN[C@@H]1[C@@H](O)[C@@H](O[C@@H]2[C@@H](O)[C@H](O[C@H]3OC(CNC(C)(C)C)=CC[C@H]3N)[C@@H](N)C[C@H]2N)OC[C@]1(C)O",
    "value.qualifier": "<",
    "MIC [µg/mL]": 0.01
  },
  {
    "substance.smiles": "CN[C@@H]1[C@@H](O)[C@@H](O[C@@H]2[C@@H](O)[C@H](O[C@H]3OC(CNCCc4ccccc4)=CC[C@H]3N)[C@@H](N)C[C@H]2N)OC[C@]1(C)O",
    "value.qualifier": "=",
    "MIC [µg/mL]": 0.03
  },
  {
    "substance.smiles": "CN[C@@H]1[C@@H](O)[C@@H](O[C@@H]2[C@@H](O)[C@H](O[C@H]3OC(CN)=CC[C@H]3N)[C@@H](N)C[C@H]2N)OC[C@]1(C)O",
    "value.qualifier": "<",
    "MIC [µg/mL]": 0.01
  },
  {
    "substance.smiles": "CN[C@@H]1[C@@H](O)[C@@H](O[C@@H]2[C@@H](O)[C@H](O[C@H]3OC(CNCCO)=CC[C@H]3N)[C@@H](N)C[C@H]2N)OC[C@]1(C)O",
    "value.qualifier": "=",
    "MIC [µg/mL]": 0.3
  }
]

###

Tested on: Escherichia coli
method: Antimicrobial activity against Escherichia coli ATCC 10536 by tube dilution method
Format: functional
Measured MIC accompanies every entry in the list below.
property.name: MIC

[
  {
    "compound": "CN[C@@H]1[C@@H](O)[C@@H](O[C@@H]2[C@@H](O)[C@H](O[C@H]3OC(CO)=CC[C@H]3N)[C@@H](N)C[C@H]2N)OC[C@]1(C)O",
    "endpoint.result": "0.75 µg/mL"
  },
  {
    "compound": "CN[C@@H]1[C@@H](O)[C@@H](O[C@@H]2[C@@H](O)[C@H](O[C@H]3OC(CNCCO)=CC[C@H]3N)[C@@H](N)C[C@H]2N)OC[C@]1(C)O",
    "endpoint.result": "0.075 µg/mL"
  },
  {
    "compound": "CN[C@@H]1[C@@H](O)[C@@H](O[C@@H]2[C@@H](O)[C@H](O[C@H]3OC(CN)=CC[C@H]3N)[C@@H](N)C[C@H]2N)OC[C@]1(C)O [SISOMICIN]",
    "endpoint.result": "0.75 µg/mL"
  },
  {
    "compound": "CNCC1=CC[C@@H](N)[C@@H](O[C@H]2[C@H](O)[C@@H](O[C@H]3OC[C@](C)(O)[C@H](NC)[C@H]3O)[C@H](N)C[C@@H]2N)O1",
    "endpoint.result": "0.3 µg/mL"
  },
  {
    "compound": "CN[C@@H]1[C@@H](O)[C@@H](O[C@@H]2[C@@H](O)[C@H](O[C@H]3OC(CNCCc4ccccc4)=CC[C@H]3N)[C@@H](N)C[C@H]2N)OC[C@]1(C)O",
    "endpoint.result": "0.75 µg/mL"
  },
  {
    "compound": "CN[C@@H]1[C@@H](O)[C@@H](O[C@@H]2[C@@H](O)[C@H](O[C@H]3OC(CNC(C)(C)C)=CC[C@H]3N)[C@@H](N)C[C@H]2N)OC[C@]1(C)O",
    "endpoint.result": "0.75 µg/mL"
  }
]
